From: patent US8022177B2

Biological target: T1, Cav3.1 (Homo sapiens, UniProt O43497)
T1 construct: expressed in transfected cells; host or cells: HEK-293, stably transfected
T1 sequence (O43497 whole entry): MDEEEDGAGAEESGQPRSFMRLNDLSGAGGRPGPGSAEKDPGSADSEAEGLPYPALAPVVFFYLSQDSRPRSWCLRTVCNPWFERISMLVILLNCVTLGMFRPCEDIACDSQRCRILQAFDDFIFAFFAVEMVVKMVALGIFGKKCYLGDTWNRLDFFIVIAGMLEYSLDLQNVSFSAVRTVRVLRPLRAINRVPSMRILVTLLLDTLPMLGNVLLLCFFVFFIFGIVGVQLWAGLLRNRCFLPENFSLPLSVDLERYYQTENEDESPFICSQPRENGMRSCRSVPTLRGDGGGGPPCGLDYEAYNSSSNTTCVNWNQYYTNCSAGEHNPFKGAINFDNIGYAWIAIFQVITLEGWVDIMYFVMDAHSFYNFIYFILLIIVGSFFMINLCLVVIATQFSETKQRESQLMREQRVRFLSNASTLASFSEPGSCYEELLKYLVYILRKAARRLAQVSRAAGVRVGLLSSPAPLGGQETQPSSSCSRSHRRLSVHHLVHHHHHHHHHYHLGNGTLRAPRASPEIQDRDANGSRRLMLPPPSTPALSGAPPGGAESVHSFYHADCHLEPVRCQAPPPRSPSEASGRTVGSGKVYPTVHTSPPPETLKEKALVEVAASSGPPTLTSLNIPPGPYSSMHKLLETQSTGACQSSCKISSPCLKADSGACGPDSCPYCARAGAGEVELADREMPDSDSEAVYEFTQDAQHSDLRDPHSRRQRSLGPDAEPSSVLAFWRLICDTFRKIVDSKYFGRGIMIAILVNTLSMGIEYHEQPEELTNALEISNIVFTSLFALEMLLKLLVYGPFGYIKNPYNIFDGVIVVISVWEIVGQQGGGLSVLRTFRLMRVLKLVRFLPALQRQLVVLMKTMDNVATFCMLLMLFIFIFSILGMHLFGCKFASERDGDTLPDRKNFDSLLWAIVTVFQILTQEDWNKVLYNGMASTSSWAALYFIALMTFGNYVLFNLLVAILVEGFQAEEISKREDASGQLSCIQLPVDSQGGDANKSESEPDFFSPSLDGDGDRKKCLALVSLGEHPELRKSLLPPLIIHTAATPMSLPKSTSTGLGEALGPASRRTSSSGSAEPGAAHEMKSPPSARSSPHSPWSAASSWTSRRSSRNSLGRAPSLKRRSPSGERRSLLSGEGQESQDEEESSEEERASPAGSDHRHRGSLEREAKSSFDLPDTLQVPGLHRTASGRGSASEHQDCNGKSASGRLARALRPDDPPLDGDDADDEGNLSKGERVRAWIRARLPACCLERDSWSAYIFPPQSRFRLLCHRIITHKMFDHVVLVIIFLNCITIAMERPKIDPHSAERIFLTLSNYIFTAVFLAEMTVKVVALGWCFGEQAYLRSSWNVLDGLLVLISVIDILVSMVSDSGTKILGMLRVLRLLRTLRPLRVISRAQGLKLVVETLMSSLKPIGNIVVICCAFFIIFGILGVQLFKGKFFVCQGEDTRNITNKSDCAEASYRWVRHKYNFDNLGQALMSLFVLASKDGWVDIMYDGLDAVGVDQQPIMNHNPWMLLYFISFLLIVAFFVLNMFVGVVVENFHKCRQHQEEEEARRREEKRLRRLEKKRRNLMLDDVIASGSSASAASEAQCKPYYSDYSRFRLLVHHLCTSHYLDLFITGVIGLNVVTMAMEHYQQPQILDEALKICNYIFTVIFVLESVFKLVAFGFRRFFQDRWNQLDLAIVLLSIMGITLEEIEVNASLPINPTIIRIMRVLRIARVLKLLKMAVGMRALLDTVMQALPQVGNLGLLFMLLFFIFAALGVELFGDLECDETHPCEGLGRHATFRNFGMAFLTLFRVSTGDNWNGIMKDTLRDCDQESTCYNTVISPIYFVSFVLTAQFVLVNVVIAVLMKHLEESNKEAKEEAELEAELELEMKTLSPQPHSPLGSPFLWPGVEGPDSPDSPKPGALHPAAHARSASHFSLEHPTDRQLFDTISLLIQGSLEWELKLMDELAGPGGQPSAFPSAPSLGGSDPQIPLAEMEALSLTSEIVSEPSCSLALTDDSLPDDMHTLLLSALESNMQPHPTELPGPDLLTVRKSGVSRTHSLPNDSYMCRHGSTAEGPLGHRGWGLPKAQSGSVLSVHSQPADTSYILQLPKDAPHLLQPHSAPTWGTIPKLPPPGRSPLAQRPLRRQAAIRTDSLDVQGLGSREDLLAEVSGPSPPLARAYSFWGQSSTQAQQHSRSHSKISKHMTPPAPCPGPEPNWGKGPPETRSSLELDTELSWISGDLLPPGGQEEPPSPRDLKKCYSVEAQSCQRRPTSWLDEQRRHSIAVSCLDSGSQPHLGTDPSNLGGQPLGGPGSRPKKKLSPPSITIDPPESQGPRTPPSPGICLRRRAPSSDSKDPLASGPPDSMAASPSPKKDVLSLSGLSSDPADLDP
Assay: Whole-cell patch clamp of Cav3.1 dependent LVA calcium current in HEK-293/Cav3.1 cells transiently transfected with γ subunits (Example 1)
Format: cell-based
Details: Table 2
Experimental readout: Activation k

Molecule	Activation k
γ4: rat calcium channel γ4 subunit (AF361341), SEQ ID NO:47 (protein, listed as Rattus norvegicus) MVRCDRGLQMLLTTAGAFAAFSLMAIAIGTDYWLYSSAHICNGTNLTMDDGPPPRRARGDLTHSGLWRVCCIEGIYKGHCFRINHFPEDNDYDHDSSEYLLRIVRASSVFPILSTILLLLGGLCIGAGRIYSRKNNIVLSAGILFVAAGLSNIIGIIVYISSNTGDPSDKRDEDKKNHYNYGWSFYFGALSFIVAETVGVLAVNIYIEKNKELRFKTKREFLKASSSSPYSRMPSYRYRRRRSRSSSRSTEASPSRDASPVGLKITGAIPMGELSMYTLSREPLKVTTAASYSPDQDAGFLQMHDFFQQDLKEGFHVSMLNRRTTPV	11.8 ± 0.5 (n = 8)

Now take the following molecule into account.
Looking up γ6S: rat calcium channel γ6 subunit, short isoform (AF361344), SEQ ID NO:49 (protein, listed as Rattus norvegicus) MMWSNFFMQEEDRRRTAVGRRRAQEQQNLGLTPEREGKIKLGLLVAIVGATLAVLAVGTEFWVELNTYKTNGSAVCEAAHLGLWKVCIKRLWQADVPAGRETCGPAELPGEANCTYFKFFTTGENAHIFQRTTKKGLLLFVSLEVFRHSVRALLQGVNPETPPAPRLAYEYSWSLGCGVGAGLILLLGGVCFLLLTLPSWPWRSLCPKRGGPTA , I found its Activation k recorded as 12.7 ± 1.5 (n = 4)
